Ref: patent US20160297884A1

Measured T ½ values are reported for all entries that follow.
Study Target: T1, Human BCMA (human, UniProt Q02223 1-54, limits assumed)
T1 construct: Soluble analyte in SPR; construct not described; also called huBCMA; B-cell maturation antigen
T1 sequence (looked up): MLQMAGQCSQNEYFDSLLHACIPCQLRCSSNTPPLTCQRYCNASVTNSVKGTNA
Experimental Protocol: SPR, IgG immobilised, 37 C
Quantity Measured: T ½ (min)

INSERT INTO results (binder, quantity_measured, unit_abbrev, measurement) VALUES
  ('L3.PY/L1.FF/H3.YA (antibody, V domains shown, IgG) VH: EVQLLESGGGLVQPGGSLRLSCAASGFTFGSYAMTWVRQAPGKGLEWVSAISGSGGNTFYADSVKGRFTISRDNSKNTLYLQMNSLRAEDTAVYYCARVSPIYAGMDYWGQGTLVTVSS VL: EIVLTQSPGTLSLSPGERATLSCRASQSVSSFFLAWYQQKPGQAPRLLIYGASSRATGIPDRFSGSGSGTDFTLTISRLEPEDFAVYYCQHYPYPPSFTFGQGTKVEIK', 'T ½', 'min', 6.41),
  ('L3.PY/L1.AH/H3.YA (antibody, V domains shown, IgG) VH: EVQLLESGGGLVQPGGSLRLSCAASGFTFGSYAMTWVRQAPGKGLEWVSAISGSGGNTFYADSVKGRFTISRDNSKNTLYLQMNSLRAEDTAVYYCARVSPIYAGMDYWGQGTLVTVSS VL: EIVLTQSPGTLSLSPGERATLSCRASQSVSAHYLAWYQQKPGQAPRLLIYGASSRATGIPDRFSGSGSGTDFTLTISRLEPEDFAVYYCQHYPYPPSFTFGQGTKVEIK', 'T ½', 'min', 7.73),
  ('L3.PY/L1.FF/H2.QL (antibody, V domains shown, IgG) VH: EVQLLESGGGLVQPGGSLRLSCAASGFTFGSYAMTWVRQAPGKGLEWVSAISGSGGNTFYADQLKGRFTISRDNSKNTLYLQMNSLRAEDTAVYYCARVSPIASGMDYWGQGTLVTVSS VL: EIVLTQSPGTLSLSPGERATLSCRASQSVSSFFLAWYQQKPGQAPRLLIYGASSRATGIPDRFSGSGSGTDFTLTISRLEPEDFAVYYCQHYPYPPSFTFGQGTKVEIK', 'T ½', 'min', 8.28),
  ('L3.PY/L1.PS/H2.QL (antibody, V domains shown, IgG) VH: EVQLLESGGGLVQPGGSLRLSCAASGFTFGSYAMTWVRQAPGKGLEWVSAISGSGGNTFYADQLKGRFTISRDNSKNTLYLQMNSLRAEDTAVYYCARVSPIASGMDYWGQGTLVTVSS VL: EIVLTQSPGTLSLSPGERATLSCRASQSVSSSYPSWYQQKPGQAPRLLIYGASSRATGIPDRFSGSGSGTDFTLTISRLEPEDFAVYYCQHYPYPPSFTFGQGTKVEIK', 'T ½', 'min', 0.04),
  ('L3.PY/L1.FF/H3.AE (antibody, V domains shown, IgG) VH: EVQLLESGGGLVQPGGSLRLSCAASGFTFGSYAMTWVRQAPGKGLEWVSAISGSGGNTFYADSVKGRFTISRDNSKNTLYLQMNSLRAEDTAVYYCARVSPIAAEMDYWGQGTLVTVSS VL: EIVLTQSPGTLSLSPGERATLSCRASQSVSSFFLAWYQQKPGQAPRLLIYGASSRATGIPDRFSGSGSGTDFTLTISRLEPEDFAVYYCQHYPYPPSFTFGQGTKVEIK', 'T ½', 'min', 4.39);
